Hello, the source for this data is patent US8742113B2, in case you need it.

Parameter: inhibition at 0.1 µM. Scope: all listed entries.
test system: MCM2 phosphorylation in COLO205 cells; assay: Inhibitory effect on MCM2 phosphorylation using cells (Western blot); type: cell-based; details: Homo sapiens, COLO 205, 0.1 μM test compound, 24 hours, class by percent phosphorylation of MCM2, read-out: Test Example 2 Inhibitory effect on MCM2 phosphorylation

Solved entries (count: 3):
Smiles str: CC(C)OC(=O)C1=C(NN2CCOCC2)O/C(=C\c2c[nH]c3ncccc23)C1=O
inhibition at 0.1 µM: < 20%
--
Smiles str: O=C(O)C1=C(Nc2ccccc2)O/C(=C\c2c[nH]c3ncccc23)C1=O
inhibition at 0.1 µM: 50 to 70%
--
Smiles str: CCOC(=O)C1=C(Nc2ccc(OCCO)cc2F)OC(=Cc2c[nH]c3ncccc23)C1=O
inhibition at 0.1 µM: < 20%

# context switch: different compound, same inhibition at 0.1 µM
input: What measured inhibition at 0.1 µM goes with CCOC(=O)C1=C(N2CCc3ccccc3C2)O/C(=C\c2c[nH]c3ncccc23)C1=O ?
output: < 20%
